test: growth inhibition of DIPG cells – cell-based, MIPE5.0 library, qHTS (AID 1347068); conditions: SU-DIPG-XXV viability;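 as to IC50: cells exposed to compound for 48 hours before viability readout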
Records with an inconclusive call do not appear. Active and inactive are the calls of the source. The limit is not given here; nearly all actives have IC50 up to about 30 µM.
Outcomes: active, inactive

compound: c1cc(N[C@@H]2CCNC2)nc(-c2cnc3ccc(-c4cn[nH]c4)cn23)c1
groupLabel: active

compound: CCn1c(C(=O)N(C2CC2)C2CC2)cc2c3c(ncn3C)c(Nc3cc(C)n(C)n3)nc21
groupLabel: inactive

compound: O=C(NC1CCOCC1)c1ccc(-c2cc(-c3cn[nH]c3-c3ccccn3)ccn2)cc1
groupLabel: inactive

compound: C=CC(=O)Nc1cccc(Nc2nc(Nc3ccc(Oc4ccnc(C(=O)NC)c4)cc3)ncc2F)c1
groupLabel: active

compound: Cc1ccc(S(=O)(=O)OCC(=O)Nc2ccc(C(=O)O)c(O)c2)cc1
groupLabel: inactive

compound: CNC(=O)c1ccc(Nc2ncc(C(F)(F)F)c(NCc3nccnc3N(C)S(C)(=O)=O)n2)cc1
groupLabel: active

compound: COC1CCC(N2C(=O)CNc3ncc(-c4ccc(C(C)(C)O)nc4)nc32)CC1 (stereo unspecified)
groupLabel: active

compound: Clc1cccc(-n2nnnc2NCc2ccccc2Oc2ccccn2)c1Cl
groupLabel: inactive

compound: CC1=C[C@@H]2[C@H]([C@@H](O)C[C@@]3(C)[C@H]2C[C@@H](C)[C@]3(O)C(=O)CO)[C@@]2(C)Cc3cnn(-c4ccccc4)c3C=C12
groupLabel: active

compound: CN[C@@H](C)C(=O)N[C@H](C(=O)N1CCC[C@H]1c1nc(C(=O)c2ccc(F)cc2)cs1)C1CCCCC1
groupLabel: inactive

compound: O=S(=O)(O)c1ccc2cc(N=Nc3cc(S(=O)(=O)O)c4cccnc4c3O)ccc2c1
groupLabel: inactive

compound: CNc1ncc2cc(-c3cc(NC(=O)NCCC(C)(C)C)c(F)cc3C)c(C)nc2n1
groupLabel: inactive

compound: NC(=O)c1cc(F)cc2c1C(=O)N(C1CCN(C3CCC(F)(F)CC3)CC1)C2
groupLabel: inactive

compound: CCN1C(=O)CNc2ncc(-c3ccc(-c4ncn[nH]4)nc3C)nc21
groupLabel: active

compound: CC(C)n1c(=O)cc(N[C@@H](C)c2ccccc2)[nH]c1=O
groupLabel: inactive

compound: COc1cccc2c1C(=O)c1c(O)c3c(c(O)c1C2=O)C[C@@](O)(/C(CO)=N/NC(=O)CCCCCN1C(=O)C=CC1=O)C[C@@H]3O[C@H]1C[C@H](N)[C@H](O)[C@H](C)O1
groupLabel: active

compound: C=CC(=O)N1CC/C(=C\c2ccc(F)c([N+](=O)[O-])c2)C(=O)/C(=C/c2ccc(F)c([N+](=O)[O-])c2)C1
groupLabel: active

compound: Cc1nnc(C(C)C)n1C1CC2CCC(C1)N2CC[C@H](NC(=O)C1CCC(F)(F)CC1)c1ccccc1 (stereo partly specified)
groupLabel: inactive

compound: COc1cc(C(=O)N2CCC(N3CCN(C)CC3)CC2)ccc1Nc1ncc2c(n1)N(C)c1ccccc1C(=O)N2C
groupLabel: active

compound: CC(C)(C)C(=O)Oc1ccc2c(c1)nc(NC(=O)c1cccc([N+](=O)[O-])c1)n2CCCO
groupLabel: inactive

compound: COc1cccc2nc(-c3cccs3)nc(NN3C(=O)C=C(C)C3=O)c12
groupLabel: active

compound: O=C1CCC[C@@H]2[C@H]3CCC[N+]4([O-])CCC[C@@H](CN12)[C@@H]34 (stereo partly specified)
groupLabel: inactive

compound: COc1cc(=C2C=c3ccccc3=N2)[nH]/c1=C/c1[nH]c(C)cc1C
groupLabel: active

compound: Cc1cc2c(F)c(Oc3ncnn4cc(OC[C@@H](C)O)c(C)c34)ccc2[nH]1
groupLabel: active

compound: COc1cc2c(cc1-c1c(C)noc1C)ncc1[nH]c(=O)n([C@H](C)c3ccccn3)c12
groupLabel: inactive

compound: CC(=O)c1cnc2ccc(-c3cc(Cl)c(O)c(Cl)c3)nc2c1NC1CCC(CN(C)C)CC1 (stereo unspecified)
groupLabel: active
